# Test system: Ba/F3 SLC34A2/ROS1-G2032R cell line
# METHOD SUMMARY: In vitro cytological inhibitory activity (Celltiter-Glo assay)
# Format: cell-based
# CONDITION INFO: Mus musculus, BaF3, 72 hours
MEASURE: IC50

query: Entry C[C@@H]1COc2ncc(F)cc2[C@H]2CCCN2c2ccc3ncn(c3n2)C(=O)N1 has what IC50?
result: 2.3 nM

----------
# System: Ba/F3 ETV6-NTRK3-G623R cell line
# METHOD SUMMARY: In vitro cytological inhibitory activity (CelltiterGlo assay)
# Assay type: cell-based
# CONDITION INFO: Mus musculus, BaF3, 72 hours
MEASURE: pIC50
pIC50 is defined as minus the log10 of a concentration measured in mol/L.

query: Entry under review: C[C@@H]1COc2ncc(F)cc2[C@H]2CCCN2c2ccc3ncn(c3n2)C(=O)N1 . Reported pIC50?
result: 9.00
